- System: rat erythrocytes
- run-description: Hemolysis assay
- Type: cell-based
- experimental-setup: pH 7.4
Recorded HC50 for the following compounds

{"smiles-data": "C[C@@H](c1ccccc1)N(CC(N)=O)C(=O)CN(C(=O)CN(CCCCN)C(=O)CN(C(=O)CN(C(=O)CN(CCCCN)C(=O)CN(C(=O)CN(CCCCN)C(=O)CN(CCCCN)C(=O)CN(CCc1c[nH]c2ccccc12)C(=O)CN(CCc1c[nH]c2ccccc12)C(=O)CNCCCCN)[C@@H](C)c1ccccc1)[C@@H](C)c1ccccc1)[C@@H](C)c1ccccc1)[C@@H](C)c1ccccc1", "op": ">", "HC50 / µM": 100}
{"smiles-data": "C[C@@H](c1ccccc1)N(CC(N)=O)C(=O)CN(C(=O)CN(CCCCN)C(=O)CN(C(=O)CN(CCCCN)C(=O)CN(CCCCN)C(=O)CN(C(=O)CN(C(=O)CN(CCCCN)C(=O)CN(CCc1c[nH]c2ccccc12)C(=O)CN(CCc1c[nH]c2ccccc12)C(=O)CNCCCCN)[C@@H](C)c1ccccc1)[C@@H](C)c1ccccc1)[C@@H](C)c1ccccc1)[C@@H](C)c1ccccc1", "op": ">", "HC50 / µM": 100}
{"smiles-data": "C[C@@H](c1ccccc1)N(CC(N)=O)C(=O)CN(C(=O)CN(CCCCN)C(=O)CN(C(=O)CN(C(=O)CN(CCCCN)C(=O)CN(C(=O)CN(C(=O)CN(CCCCN)C(=O)CN(C(=O)CN(C(=O)CN(CCCCN)C(=O)CN(CCc1c[nH]c2ccccc12)C(=O)CNCCc1c[nH]c2ccccc12)[C@@H](C)c1ccccc1)[C@@H](C)c1ccccc1)[C@@H](C)c1ccccc1)[C@@H](C)c1ccccc1)[C@@H](C)c1ccccc1)[C@@H](C)c1ccccc1)[C@@H](C)c1ccccc1", "op": "=", "HC50 / µM": 22.0}
{"smiles-data": "C[C@@H](c1ccccc1)N(CC(N)=O)C(=O)CN(C(=O)CN(CCCCN)C(=O)CN(CCc1c[nH]c2ccccc12)C(=O)CN(CCc1c[nH]c2ccccc12)C(=O)CN(CCCCN)C(=O)CN(C(=O)CN(C(=O)CN(CCCCN)C(=O)CN(C(=O)CN(C(=O)CNCCCCN)[C@@H](C)c1ccccc1)[C@@H](C)c1ccccc1)[C@@H](C)c1ccccc1)[C@@H](C)c1ccccc1)[C@@H](C)c1ccccc1", "op": "=", "HC50 / µM": 65.2}

###

- Tested on: rat erythrocytes
- run-description: Hemolysis assay
- Type: cell-based
- experimental-setup: pH 7.4
observed-property: HC10 (µM)

{"molecule": "C[C@@H](c1ccccc1)N(CC(N)=O)C(=O)CN(CCCCN)C(=O)CN(C(=O)CN(CCCCN)C(=O)CN(CCCCN)C(=O)CN(C(=O)CN(C(=O)CN(CCCCN)C(=O)CN(C(=O)CN(C(=O)CN(CCCCN)C(=O)CN(C(=O)CNCCc1c[nH]c2ccccc12)[C@@H](C)c1ccccc1)[C@@H](C)c1ccccc1)[C@@H](C)c1ccccc1)[C@@H](C)c1ccccc1)[C@@H](C)c1ccccc1)[C@@H](C)c1ccccc1 [peptoid 62]", "result-number": 36.2}
{"molecule": "C[C@@H](c1ccccc1)N(CC(N)=O)C(=O)CN(C(=O)CN(CCCCN)C(=O)CN(C(=O)CN(C(=O)CN(CCCCN)C(=O)CN(CCc1c[nH]c2ccccc12)C(=O)CN(C(=O)CN(CCCCN)C(=O)CN(C(=O)CN(C(=O)CNCCCCN)[C@@H](C)c1ccccc1)[C@@H](C)c1ccccc1)[C@@H](C)c1ccccc1)[C@@H](C)c1ccccc1)[C@@H](C)c1ccccc1)[C@@H](C)c1ccccc1 [peptoid 9]", "result-number": 10.6}
